assay: solubility study in water and different solvents; format: physicochemical; conditions: organic solvent or mixture, thermodynamic from solid, acetonitrile, 25 °C, read-out: solubility
measured attribute: solubility at 48 h (µg/mL)
Just the number in µg/mL, nothing appended.

Prompt: For the compound shown here, CCc1cc2c(cc1N1CCC(N3CCOCC3)CC1)C(C)(C)c1[nH]c3cc(C#N)ccc3c1C2=O.Cl [ALBHCL] , give the reported solubility at 48 h.
Response: 150

* * *

assay: solubility study in water and different solvents; assay type: physicochemical; details: organic solvent or mixture, thermodynamic from solid, DMSO, 25 °C, read-out: solubility
measured attribute: solubility at 48 h (µg/mL)
Just the number in µg/mL, nothing appended.

Prompt: For the compound shown here, CCc1cc2c(cc1N1CCC(N3CCOCC3)CC1)C(C)(C)c1[nH]c3cc(C#N)ccc3c1C2=O.Cl [ALBHCL] , give the reported solubility at 48 h.
Response: 4500

* * *

experiment: solubility study in water and different solvents; type: physicochemical; conditions: propylene glycol, organic solvent or mixture, thermodynamic from solid, PG, 25 °C, read-out: solubility
measured attribute: solubility at 48 h (µg/mL)
Just the number in µg/mL, nothing appended.

Prompt: For the molecule shown here, CCc1cc2c(cc1N1CCC(N3CCOCC3)CC1)C(C)(C)c1[nH]c3cc(C#N)ccc3c1C2=O.Cl [ALBHCL] , give the reported solubility at 48 h.
Response: 211

* * *

assay: solubility study in water and different solvents; format: physicochemical; settings: organic solvent or mixture, thermodynamic from solid, THF, 25 °C, read-out: solubility
measured attribute: solubility at 48 h (µg/mL)
Just the number in µg/mL, nothing appended.

Prompt: For the compound shown here, CCc1cc2c(cc1N1CCC(N3CCOCC3)CC1)C(C)(C)c1[nH]c3cc(C#N)ccc3c1C2=O.Cl [ALBHCL] , give the reported solubility at 48 h.
Response: 281

* * *

assay: solubility study in water and different solvents; format: physicochemical; details: PEG 400, organic solvent or mixture, thermodynamic from solid, PEG400, 25 °C, read-out: solubility
measured attribute: solubility at 48 h (µg/mL)
Just the number in µg/mL, nothing appended.

Prompt: For the compound shown here, CCc1cc2c(cc1N1CCC(N3CCOCC3)CC1)C(C)(C)c1[nH]c3cc(C#N)ccc3c1C2=O.Cl [ALBHCL] , give the reported solubility at 48 h.
Response: 260

* * *

experiment: solubility study in water and different solvents; type: physicochemical; conditions: organic solvent or mixture, thermodynamic from solid, chloroform, 25 °C, read-out: solubility
measured attribute: solubility at 48 h (µg/mL)
Just the number in µg/mL, nothing appended.

Prompt: For the molecule shown here, CCc1cc2c(cc1N1CCC(N3CCOCC3)CC1)C(C)(C)c1[nH]c3cc(C#N)ccc3c1C2=O.Cl [ALBHCL] , give the reported solubility at 48 h.
Response: 620

* * *

test: photostability in solution and solid state; assay type: physicochemical; conditions: solution in methanol exposed to light, solution, light, room temperature; read-out: half-life of photodegradation (converted)
measured attribute: half-life at 50 µg/mL (h)
Just the number in h, nothing appended.

Prompt: For the compound shown here, CCc1cc2c(cc1N1CCC(N3CCOCC3)CC1)C(C)(C)c1[nH]c3cc(C#N)ccc3c1C2=O.Cl [ALBHCL] , give the reported half-life at 50 µg/mL.
Response: 8.3

* * *

assay: pH-solubility profile; assay type: physicochemical; details: aqueous buffer; pH 3.5, citrate buffer 0.05 M
measured attribute: solubility at 48 h

Prompt: For the compound shown here, CCc1cc2c(cc1N1CCC(N3CCOCC3)CC1)C(C)(C)c1[nH]c3cc(C#N)ccc3c1C2=O.Cl [ALBHCL] , give the reported solubility at 48 h.
Response: 50 µg/mL

* * *

test: pH-solubility profile; type: physicochemical; conditions: aqueous buffer; pH 5, citrate buffer 0.05 M
measured attribute: solubility at 48 h
Answer format: value, then unit.

Prompt: For the compound shown here, CCc1cc2c(cc1N1CCC(N3CCOCC3)CC1)C(C)(C)c1[nH]c3cc(C#N)ccc3c1C2=O.Cl [ALBHCL] , give the reported solubility at 48 h.
Response: 25.8 µg/mL

* * *

Assay: solubility study in water and different solvents
Type: physicochemical
Settings: organic solvent or mixture, thermodynamic from solid, methanol, 25 °C, read-out: solubility
Description: Then, they were covered with aluminum foil to exclude the light effect. Then, all tubes were put in a water bath at 25 ± 1 °C and 50 rpm for 48 h to reach equilibrium. After that, the samples were filtered using a 0.22 µm filter, and 1 mL was injected into the HPLC. Any sample with a high reading was diluted with the mobile phase.
measured attribute: solubility at 48 h (µg/mL)
Just the number in µg/mL, nothing appended.

Prompt: For the compound shown here, CCc1cc2c(cc1N1CCC(N3CCOCC3)CC1)C(C)(C)c1[nH]c3cc(C#N)ccc3c1C2=O.Cl [ALBHCL] , give the reported solubility at 48 h.
Response: 1990

* * *

assay: solubility study in water and different solvents; type: physicochemical; details: thermodynamic from solid, water, 25 °C, read-out: absolute solubility
measured attribute: solubility at 48 h (µg/mL)
Just the number in µg/mL, nothing appended.

Prompt: For the molecule shown here, CCc1cc2c(cc1N1CCC(N3CCOCC3)CC1)C(C)(C)c1[nH]c3cc(C#N)ccc3c1C2=O.Cl [ALBHCL] , give the reported solubility at 48 h.
Response: 10.3

Ref: paper PMC11206852
